Target: hTG2 (Homo sapiens)
Sequence (P21980 whole entry): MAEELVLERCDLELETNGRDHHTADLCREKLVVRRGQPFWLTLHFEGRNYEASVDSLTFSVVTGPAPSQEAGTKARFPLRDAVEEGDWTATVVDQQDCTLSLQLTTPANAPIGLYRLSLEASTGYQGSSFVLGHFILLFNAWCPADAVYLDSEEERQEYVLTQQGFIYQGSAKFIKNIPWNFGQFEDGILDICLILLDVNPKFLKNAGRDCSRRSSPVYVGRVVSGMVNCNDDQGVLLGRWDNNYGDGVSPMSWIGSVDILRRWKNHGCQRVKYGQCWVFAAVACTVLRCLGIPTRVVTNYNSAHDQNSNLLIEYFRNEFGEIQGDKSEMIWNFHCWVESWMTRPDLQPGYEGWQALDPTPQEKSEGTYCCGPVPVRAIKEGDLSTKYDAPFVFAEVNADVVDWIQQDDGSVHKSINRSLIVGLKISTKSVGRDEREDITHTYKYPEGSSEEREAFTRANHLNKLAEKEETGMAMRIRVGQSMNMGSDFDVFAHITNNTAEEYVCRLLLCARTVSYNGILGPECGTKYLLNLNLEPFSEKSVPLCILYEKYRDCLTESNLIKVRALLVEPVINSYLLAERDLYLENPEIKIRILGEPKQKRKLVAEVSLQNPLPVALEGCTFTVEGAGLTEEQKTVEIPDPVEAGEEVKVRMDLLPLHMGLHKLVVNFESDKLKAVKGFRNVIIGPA
Assay: biochemical
Conditions: fit to saturation kinetics model; 25° C., pH 6.95, 100 μM AL5; read-out: kinact/KI (converted)
Description: The ability of the compounds to inhibit TG2 transamidase activity and the kinetics of TG2 inhibition were investigated using a colorimetric activity assay, as follows: Colorimetric transamidase activity assay. […] Formation of hydrolysis product, p-nitrophenolate (pNP), was monitored at 405 nm in a polystyrene 96-well microplate using a BioTek Synergy 4 plate reader. […]

{"columns": ["compound", "kinact/KI / M⁻¹ s⁻¹"],
 "data": [
  ["C=CC(=O)NCCCC[C@H](NS(=O)(=O)CC)C(=O)N1CCN(C(=O)c2cccc3ccccc23)CC1 [Inhibitor 90]", 518],
  ["C=CC(=O)NCCCC[C@H](NC(=O)CC(C)C)C(=O)N1CCN(C(=O)c2cccc3ccccc23)CC1 [Inhibitor 38]", 1110],
  ["C=CC(=O)NCCCC[C@H](NC(=O)c1nccn1C)C(=O)N1CCN(C(=O)c2cccc3ccccc23)CC1 [Inhibitor 21]", 192],
  ["C=CC(=O)NCCCC[C@H](NC(=O)c1ccc2ccccc2c1)C(=O)N1CCN(C(=O)c2cccc3ccccc23)CC1 [Inhibitor 65]", 608],
  ["C=CC(=O)NCCCC[C@H](NC(=O)Cc1ccccc1Br)C(=O)N1CCN(C(=O)c2cccc3ccccc23)CC1 [Inhibitor 77]", 5170],
  ["C=CC(=O)NCCCC[C@H](NC(=O)CC1CCCCC1)C(=O)N1CCN(C(=O)c2cccc3ccccc23)CC1 [Inhibitor 34]", 348],
  ["C=CC(=O)NCCCC[C@H](NC(=O)Cc1ccc(Cl)c(Cl)c1)C(=O)N1CCN(C(=O)c2cccc3ccccc23)CC1 [Inhibitor 79]", 2180]
]}
